Target: Normal MUC1 on non-transformed MCF-10A cells and on normal tissue (human) (UniProt P15941)
Assay: flow cytometry, MCF10a cells
This listing pairs binders with measured percentage of APC+ stained cells.
Give your result as the value with the unit written after it.

// solved cases for percentage of APC+ stained cells follow
Noted for M20 (antibody, human IgG1, kappa, V domains shown) VH: EVQLVESGGGLVQPGGSLRLSCAASGFTFSSYWMHWVRQAPGKGLVWVSHINSDGSSTSYADSVKGRFTISRDNAKNTLYLQMNSLRAEDTAVYYCARELADWGQGTLVTVSS VL: DVVMTQSPLSLPVTLGQPASISCRSSQSLVYSDGNTYLNWFQQRPGQSPRRLIYQVSNRDSGVPDRFSGSGSGTDFTLKIGRVEAEDVGVYFCMQGTHWPWTFGQGTKVEIKR : its percentage of APC+ stained cells reads 4.45%

Noted for M3 (antibody, human IgG1, lambda, V domains shown) VH: QLQLQESGPGLVKPSETLSLTCTVSGGSISSSSYYWGWIRQPPGKGLEWIGSIYYSGSTHYNPSLKSRVTISVDTSKNQFSLKLRSVTAADTAVYYCARGVVEVRGNHYYYYYMDVWGKGTTVTVSS VL: QSVLTQPPSVSGAPGQRVTISCTGSSSNIGAGYDVHWYQQLPGTAPKLLIYGNSYRPSGVPDRFSGSKSGTSASLAITGLQAEDEADYYCQSYDSSLSGSGVFGGGTKLTVLG : its percentage of APC+ stained cells reads 3.14%

Noted for M22 (antibody, human IgG1, kappa, V domains shown) VH: EVQLVESGGGLVQPGGSLRLSCAASGFTVSSNYMSWVRQAPGKGLEWVSVIYSGGTTYYADSVKGRFTISRHNSKNTLYLQMNSLRAEDTAVYYCARDHDPDYGGYYMDVWGKGTTVTVSS VL: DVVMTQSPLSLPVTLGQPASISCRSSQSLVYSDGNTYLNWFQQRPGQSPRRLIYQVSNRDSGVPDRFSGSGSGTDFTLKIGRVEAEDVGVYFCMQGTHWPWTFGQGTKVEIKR : its percentage of APC+ stained cells reads 2.17%

Noted for M21 (antibody, human IgG1, kappa, V domains shown) VH: EVQLVESGGGLVQPGGSLRLSCAASGFTVSSNYMSWVRQAPGKGLEWVSVIYSGGSTYYADSVKGRFTISRDNSKNTLYLQMNSLRAEDTAVYYCARDQEHYFDGSGYYVDYWGQGTLVTVSS VL: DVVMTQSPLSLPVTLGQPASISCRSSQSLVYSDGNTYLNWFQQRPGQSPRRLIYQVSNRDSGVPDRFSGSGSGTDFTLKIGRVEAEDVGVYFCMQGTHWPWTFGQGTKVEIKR : its percentage of APC+ stained cells reads 2.67%

--- query ---
Noted for M7 (antibody, human IgG1, kappa, V domains shown) VH: EVQLVESGGGLVQPGGSLRLSCAASGFTVSSNYMSWVRQAPGKGLEWVSVIYSGGSTYYADSVKGRFTISRDNSKNTLYLQMNSLRAEDTAVYYCARGSTNTYYYDSSGHPWGQGTMVTVSS VL: DIVMTQSPLSLPATPGEPASISCRSSQSLLHSNGYTYLDWYLQKPGQSPQVLIYLASNRASGVPDRFSGSGSGTNFTLKISRVEAEDVGLFYCMQALQTPQTFGQGTKLEIKR : its percentage of APC+ stained cells reads 0.95%
